Each recorded value in this set is attributed to patent US20260285850A1.

- Test system: galium (catchweed bedstraw, Galium aparine)
- Assay procedure: Test A postemergence application, visual injury rating 0-100
- Format: in vivo
- Cond: 31 g ai/ha, postemergence, 10 days, 0 = no effect, 100 = complete control
Galium plant response rating (0-100) strictly under 80 means class 1; at 80 or over means class 0.

| Compound | Target entity | Class assignment |
| --- | --- | --- |
| CC1(C(=O)NC2CC=C(C(=O)OCC(F)(F)F)C2)CN(c2cc(F)cc(F)c2)C(=O)O1 (single isomer, unassigned) | galium (catchweed bedstraw, Galium aparine) | class 1 |
| CC1(C(=O)NC2CCC(C(=O)NS(C)(=O)=O)C2)CN(c2cc(F)cc(F)c2)C(=O)O1 (stereo not drawn) | galium (catchweed bedstraw, Galium aparine) | class 1 |
| CC(C)COC(=O)C1=CCC(NC(=O)C2(C)CN(c3cc(F)cc(F)c3)C(=O)O2)C1 (stereo not drawn) | galium (catchweed bedstraw, Galium aparine) | class 0 |
| CC(C)OC(=O)C1CCC(NC(=O)C2(C)CN(c3cc(F)cc(Cl)c3)C(=O)O2)C1 (stereo not drawn) | galium (catchweed bedstraw, Galium aparine) | class 1 |
| CCOC(=O)C1CC(NC(=O)C2(C)CN(c3cc(F)cc(F)c3)C(=O)O2)CO1 (stereo not drawn) | galium (catchweed bedstraw, Galium aparine) | class 1 |

* * *

- Test system: oat, wild (wild oat, Avena fatua)
- Assay procedure: Test A postemergence application, visual injury rating 0-100
- Assay type: in vivo
- Cond: Postemergence, 125 g ai/ha, 10 days; 0 is no effect, 100 is complete control
Quantity kind: Oat, Wild plant response rating (0 to 100 scale)

| Molecule | Measured value |
| --- | --- |
| CC1(C(=O)NC2CC=C(C(=O)O)C2)CN(c2cc(Cl)cc(Cl)c2)C(=O)O1 (stereo not shown) | 60 |
| CC1(C(=O)NC2C=CC(C(=O)OC3CCCC3)C2)CN(c2cc(Cl)cc(Cl)c2)C(=O)O1 (stereo not shown) | 90 |
| CC1(C(=O)NC2C=CC(C(=O)OCc3ccc(F)cc3)C2)CN(c2cc(F)cc(F)c2)C(=O)O1 (stereo not shown) | 100 |
| CCOC(=O)C1=CCC(NC(=O)C2(C)CN(c3cc(F)cc(F)c3)C(=O)O2)C1 (stereo not shown) | 90 |
| CC(C)OC(=O)C1=CCC(NC(=O)C2(C)CN(c3cc(F)cc(F)c3)C(=O)O2)C1 (stereo not shown) | 90 |
| CCOC(=O)C1=CCC(NC(=O)C2(C)CN(c3cc(Cl)cc(Cl)c3)C(=O)O2)C1 (stereo not shown) | 90 |
| CCOC(=O)C1CC(NC(=O)C2(C)CN(c3cc(F)cc(F)c3)C(=O)O2)CO1 (stereo not shown) | 90 |
| COC(=O)C1=CC[C@H](NC(=O)C2(C)CN(c3cc(F)cc(F)c3)C(=O)O2)C1 (mixture of isomers) | 90 |
| COC(=O)C1CC(NC(=O)C2(C)CN(c3cc(F)cc(F)c3)C(=O)O2)CO1 (stereo not shown) | 90 |
| CC1(C(=O)NC2C=CC(C(=O)O)C2)CN(c2cc(F)cc(Cl)c2)C(=O)O1 (stereo not shown) | 100 |
| COC(=O)[C@H]1C[C@@H](NC(=O)C2(C)CN(c3cc(F)cc(F)c3)C(=O)O2)[C@H]2C[C@H]21 (stereo partly shown) | 90 |
| CCOC(=O)C1C=CC(NC(=O)C2(C)CN(c3cc(F)cc(Cl)c3)C(=O)O2)C1 (stereo not shown) | 90 |
| CC1(C(=O)NC2C=CC(C(=O)OC3CCCC3)C2)CN(c2cc(F)cc(F)c2)C(=O)O1 (stereo not shown) | 90 |
| CC1(C(=O)NC2C=CC(C(=O)NS(=O)(=O)c3ccccc3)C2)CN(c2cc(Cl)cc(Cl)c2)C(=O)O1 (stereo not shown) | 90 |
| CC1(C(=O)N[C@H]2C=C[C@@H](C(=O)O)C2)CN(c2cc(F)cc(F)c2)C(=O)O1 (stereo partly shown) | 90 |
| CC(C)OC(=O)C1C=CC(NC(=O)C2(C)CN(c3cc(F)cc(Cl)c3)C(=O)O2)C1 (stereo not shown) | 90 |
